# credit: ChEMBL document CHEMBL1687792

- Tested on: Enterococcus faecium
- Experiment Description: Antimicrobial activity against rifampin-, fusidic acid-resistant Enterococcus faecium BM-4105 by Etest
- Format: functional
Quantity Name: MIC (µg/mL)
The answer is to be given in µg/mL; state only the numeric part.

Item under review: C[C@H]1c2cccc(O)c2C(=O)C2=C(O)[C@]3(O)C(=O)C(C(N)=O)=C(O)[C@@H](N(C)C)[C@@H]3[C@@H](O)[C@@H]21.O . Reported MIC? 0.094

Fill in the blank: the reported MIC of CC(=O)NC[C@H]1CN(c2ccc(N3CCOCC3)c(F)c2)C(=O)O1 is ____. 1.5

Tell me the measured MIC of CN[C@H](CC(C)C)C(=O)N[C@H]1C(=O)N[C@@H](CC(N)=O)C(=O)N[C@H]2C(=O)N[C@H]3C(=O)N[C@H](C(=O)N[C@H](C(=O)O)c4cc(O)cc(O)c4-c4cc3ccc4O)[C@H](O)c3ccc(c(Cl)c3)Oc3cc2cc(c3O[C@@H]2O[C@H](CO)[C@@H](O)[C@H](O)[C@H]2O[C@H]2C[C@](C)(N)[C@H](O)[C@H](C)O2)Oc2ccc(cc2Cl)[C@H]1O , please. 0.75

Requested field: MIC. Item: O=C1CN(/N=C/c2ccc([N+](=O)[O-])o2)C(=O)N1 16

---

Exercise: state measured MIC for each of the compounds provided.
- Tested on: Enterococcus faecium
- Experiment Description: Antimicrobial activity against glycopeptide-resistant Enterococcus faecium isolate HS05446 harboring MLST sequence type ST17 and pulsotype B expressing vanA gene cluster isolated from urine of patient by Etest
Give just the numeric value; µg/mL need not be written.

Using the record for CC(=O)NC[C@H]1CN(c2ccc(N3CCOCC3)c(F)c2)C(=O)O1 [LINEZOLID] , report its MIC. 1.5

Please give the measured MIC for this compound: C[C@H]1c2cccc(O)c2C(=O)C2=C(O)[C@]3(O)C(=O)C(C(N)=O)=C(O)[C@@H](N(C)C)[C@@H]3[C@@H](O)[C@@H]21.O [DOXYCYCLINE] 6

So what's the measured MIC for this one? CO[C@H]1/C=C/O[C@@]2(C)Oc3c(C)c(O)c4c(O)c(c(/C=N/N5CCN(C)CC5)c(O)c4c3C2=O)NC(=O)/C(C)=C\C=C\[C@H](C)[C@H](O)[C@@H](C)[C@@H](O)[C@@H](C)[C@H](OC(C)=O)[C@@H]1C [RIFAMPIN] 4

Field request: MIC | item: O=C1CN(/N=C/c2ccc([N+](=O)[O-])o2)C(=O)N1 [NITROFURANTOIN] 16

---

- System: Enterococcus faecium
- Experiment Description: Antimicrobial activity against glycopeptide-resistant Enterococcus faecium isolate HS08257 harboring MLST sequence type ST341 and pulsotype F expressing vanM gene cluster isolated from urine of patient by Etest
Quantity Name: MIC

Looking for the measured MIC of O=C1CN(/N=C/c2ccc([N+](=O)[O-])o2)C(=O)N1 , can you help? 196 µg/mL

What value of MIC has been recorded for this entry: CN[C@H](CC(C)C)C(=O)N[C@H]1C(=O)N[C@@H](CC(N)=O)C(=O)N[C@H]2C(=O)N[C@H]3C(=O)N[C@H](C(=O)N[C@H](C(=O)O)c4cc(O)cc(O)c4-c4cc3ccc4O)[C@H](O)c3ccc(c(Cl)c3)Oc3cc2cc(c3O[C@@H]2O[C@H](CO)[C@@H](O)[C@H](O)[C@H]2O[C@H]2C[C@](C)(N)[C@H](O)[C@H](C)O2)Oc2ccc(cc2Cl)[C@H]1O > 256 µg/mL

Fill in: MIC of C[C@H]1c2cccc(O)c2C(=O)C2=C(O)[C@]3(O)C(=O)C(C(N)=O)=C(O)[C@@H](N(C)C)[C@@H]3[C@@H](O)[C@@H]21.O is ___ 0.19 µg/mL

What MIC value was documented for this compound, CO[C@H]1/C=C/O[C@@]2(C)Oc3c(C)c(O)c4c(O)c(c(/C=N/N5CCN(C)CC5)c(O)c4c3C2=O)NC(=O)/C(C)=C\C=C\[C@H](C)[C@H](O)[C@@H](C)[C@@H](O)[C@@H](C)[C@H](OC(C)=O)[C@@H]1C ? 8 µg/mL
